# System under test: T1, HLA-DR7 (DRB1*0701) (human)
# T1 chain 1: not shown
# T1 chain 2: not shown
Parameter measured: binding affinity ratio (IC50 of standard peptide / IC50 of test peptide)
Reply with just the number.

// solved cases for binding affinity ratio (IC50 of standard peptide / IC50 of test peptide) follow
>>> measurement("VFFLALFFIIFNKES (modifications not checked) [… (Pf EXP 6)]")
0.0056
>>> measurement("VSTVLLGGVGLVLYN (modifications not checked) [… (Pf EXP 88)]")
0.002
>>> measurement("ILSVFFLALFFIIFN (modifications not checked) [… (Pf EXP 3)]")
0.011

Proceeding to the next binder to report its binding affinity ratio (IC50 of standard peptide / IC50 of test peptide).
Query: Given TVLLGGVGLVLYNTE (modifications not checked) [… (Pf EXP 90)] , state its recorded binding affinity ratio (IC50 of standard peptide / IC50 of test peptide).
Result: 0.0007

Cited source for all entries: patent US9266930
